Assay system: Kappa-type opioid receptor (Cavia porcellus)
Sequence (P41144 whole entry): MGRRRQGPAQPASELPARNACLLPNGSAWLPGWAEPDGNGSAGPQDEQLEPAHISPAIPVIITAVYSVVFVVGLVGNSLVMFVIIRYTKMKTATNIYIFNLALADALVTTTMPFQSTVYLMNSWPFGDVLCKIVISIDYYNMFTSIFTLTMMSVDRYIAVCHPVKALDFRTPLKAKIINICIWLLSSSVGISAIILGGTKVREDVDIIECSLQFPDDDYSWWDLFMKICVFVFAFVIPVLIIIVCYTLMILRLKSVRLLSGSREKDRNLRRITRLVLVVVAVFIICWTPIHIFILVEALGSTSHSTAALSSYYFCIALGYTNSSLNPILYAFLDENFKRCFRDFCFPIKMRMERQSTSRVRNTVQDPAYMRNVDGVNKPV
Method notes: Binding affinity for Opioid receptor kappa 1 was determined by inhibition of binding of [3H]U-69593 (1.2-2.2 nM) to guinea pig brain membranes
Parameters: species or system Membrane
Mark satisfied only for Ki values smaller than 0.2 µM; exact matches and larger values are not satisfied.

Query: Quick check: does Oc1ccc2c3c1O[C@H]1c4nc(-c5ccccc5)ncc4C[C@@]4(O)[C@@H](C2)N(CC2CC2)CC[C@]314 have Ki under 0.2 µM?
Result: satisfied

Query: Quick check: does Oc1ccc2c3c1O[C@H]1c4ncnc(-c5ccccc5)c4C[C@@]4(O)[C@@H](C2)N(CC2CC2)CC[C@]314 have Ki under 0.2 µM?
Result: not satisfied

Query: Quick check: does Cc1cc(-c2ccccc2)c2c(n1)C1Oc3c(O)ccc4c3[C@@]13CCN(CC1CC1)[C@H](C4)[C@]3(O)C2 (some centres not stated) have Ki under 0.2 µM?
Result: not satisfied

Query: Quick check: does Oc1ccc2c3c1O[C@H]1c4nc(Cc5ccccc5)nc(-c5ccccc5)c4C[C@@]4(O)[C@@H](C2)N(CC2CC2)CC[C@]314 have Ki under 0.2 µM?
Result: not satisfied

Query: Quick check: does Oc1ccc2c3c1OC1c4nccc(-c5ccccc5)c4C[C@@]4(O)[C@@H](C2)N(CC2CC2)CC[C@]314 (some centres not stated) have Ki under 0.2 µM?
Result: not satisfied

Query: Quick check: does Oc1ccc2c3c1O[C@H]1c4nc5ccccc5c(-c5ccccc5)c4C[C@@]4(O)[C@@H](C2)N(CC2CC2)CC[C@]314 have Ki under 0.2 µM?
Result: not satisfied

Query: Quick check: does Oc1ccc2c3c1O[C@H]1c4nc(-c5ccccc5)ccc4C[C@@]4(O)[C@@H](C2)N(CC2CC2)CC[C@]314 have Ki under 0.2 µM?
Result: satisfied

---

Exercise: state measured pKi for each of the compounds provided.
In textbook form, pKi equals minus log to base ten of the concentration in mol/L.

Record Oc1ccc2c3c1OC1c4nccc(-c5ccccc5)c4C[C@@]4(O)[C@@H](C2)N(CC2CC2)CC[C@]314 (some centres not stated) has Mu-type opioid receptor (Rattus norvegicus, UniProt P33535) pKi equal to 6.72

Record Cc1nc(-c2ccccc2)c2c(n1)C1Oc3c(O)ccc4c3[C@@]13CCN(CC1CC1)[C@H](C4)[C@]3(O)C2 (some centres not stated) has Mu-type opioid receptor (Rattus norvegicus, UniProt P33535) pKi equal to 6.60

Record Oc1ccc2c3c1O[C@H]1c4nc(-c5ccccc5)ccc4C[C@@]4(O)[C@@H](C2)N(CC2CC2)CC[C@]314 has Mu-type opioid receptor (Rattus norvegicus, UniProt P33535) pKi equal to 7.96

Record Oc1ccc2c3c1O[C@H]1c4ncnc(-c5ccccc5)c4C[C@@]4(O)[C@@H](C2)N(CC2CC2)CC[C@]314 has Mu-type opioid receptor (Rattus norvegicus, UniProt P33535) pKi equal to 6.46

Record Cc1cc(-c2ccccc2)c2c(n1)C1Oc3c(O)ccc4c3[C@@]13CCN(CC1CC1)[C@H](C4)[C@]3(O)C2 (some centres not stated) has Mu-type opioid receptor (Rattus norvegicus, UniProt P33535) pKi equal to 6.81

Record Oc1ccc2c3c1O[C@H]1c4ncc(-c5ccccc5)cc4C[C@@]4(O)[C@@H](C2)N(CC2CC2)CC[C@]314 has Mu-type opioid receptor (Rattus norvegicus, UniProt P33535) pKi equal to 7.87

Record Oc1ccc2c3c1O[C@H]1c4ncccc4C[C@@]4(O)[C@@H](C2)N(CC2CC2)CC[C@]314 has Mu-type opioid receptor (Rattus norvegicus, UniProt P33535) pKi equal to 8.82

---

Exercise: state measured Selectivity ratio for each of the molecules provided.
Organism: Cavia porcellus
Method notes: Selectivity ratio of binding affinity towards kappa of guinea pig brain membrane to delta receptors of rat brain membranes
Assay type: cell membranes
Hey, just send me the number, nothing else.

Briefly, Selectivity ratio measured for Oc1ccc2c3c1O[C@H]1c4ncc(-c5ccccc5)cc4C[C@@]4(O)[C@@H](C2)N(CC2CC2)CC[C@]314 : 20

Briefly, Selectivity ratio measured for Oc1ccc2c3c1OC1c4nccc(-c5ccccc5)c4C[C@@]4(O)[C@@H](C2)N(CC2CC2)CC[C@]314 (stereo partly drawn) : 3.6

Briefly, Selectivity ratio measured for Cc1cc(-c2ccccc2)c2c(n1)C1Oc3c(O)ccc4c3[C@@]13CCN(CC1CC1)[C@H](C4)[C@]3(O)C2 (stereo partly drawn) : 5.4

---

Assay system: Opioid receptors; mu & delta (Rattus norvegicus) (UniProt P33533+P33535)
Sequence (P33533 whole entry, looked up): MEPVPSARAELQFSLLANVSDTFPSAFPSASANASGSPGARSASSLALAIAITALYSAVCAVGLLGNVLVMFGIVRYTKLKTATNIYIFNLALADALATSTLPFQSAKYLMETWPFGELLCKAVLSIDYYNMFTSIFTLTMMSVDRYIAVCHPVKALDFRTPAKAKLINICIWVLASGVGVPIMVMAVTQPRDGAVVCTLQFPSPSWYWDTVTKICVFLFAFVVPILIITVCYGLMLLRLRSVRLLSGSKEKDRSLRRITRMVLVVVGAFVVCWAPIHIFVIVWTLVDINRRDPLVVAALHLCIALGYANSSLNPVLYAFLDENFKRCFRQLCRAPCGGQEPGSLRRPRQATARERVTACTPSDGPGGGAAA
Sequence (P33535 whole entry, looked up): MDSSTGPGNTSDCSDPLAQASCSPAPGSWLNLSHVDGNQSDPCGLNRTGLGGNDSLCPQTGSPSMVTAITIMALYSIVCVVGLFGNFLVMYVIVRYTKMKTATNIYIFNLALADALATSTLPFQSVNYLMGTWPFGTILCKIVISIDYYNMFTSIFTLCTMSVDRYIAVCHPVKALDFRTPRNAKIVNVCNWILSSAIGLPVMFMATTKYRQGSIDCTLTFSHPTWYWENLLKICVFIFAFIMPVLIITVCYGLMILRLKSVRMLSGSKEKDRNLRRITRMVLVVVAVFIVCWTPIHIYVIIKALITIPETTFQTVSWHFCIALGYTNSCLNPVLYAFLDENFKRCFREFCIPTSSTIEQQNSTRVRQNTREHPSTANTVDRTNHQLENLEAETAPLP
Method notes: Selectivity ratio of binding affinity towards mu to delta receptors of rat brain membranes
Assay type: cell membranes
Measurement conditions: Membrane
Attribute measured: Selectivity ratio
Hey, just send me the number, nothing else.

Briefly, Selectivity ratio measured for Oc1ccc2c3c1O[C@H]1c4ncnc(-c5ccccc5)c4C[C@@]4(O)[C@@H](C2)N(CC2CC2)CC[C@]314 : 1.5

Briefly, Selectivity ratio measured for Oc1ccc2c3c1O[C@H]1c4nc(Cc5ccccc5)nc(-c5ccccc5)c4C[C@@]4(O)[C@@H](C2)N(CC2CC2)CC[C@]314 : 2.3

Briefly, Selectivity ratio measured for Oc1ccc2c3c1O[C@H]1c4nc(-c5ccccc5)ccc4C[C@@]4(O)[C@@H](C2)N(CC2CC2)CC[C@]314 : 6.3

Briefly, Selectivity ratio measured for Oc1ccc2c3c1O[C@H]1c4nc5ccccc5c(-c5ccccc5)c4C[C@@]4(O)[C@@H](C2)N(CC2CC2)CC[C@]314 : 4.2

---

Assay system: Delta-type opioid receptor (Mus musculus) (UniProt P32300)
Sequence (P32300 whole entry): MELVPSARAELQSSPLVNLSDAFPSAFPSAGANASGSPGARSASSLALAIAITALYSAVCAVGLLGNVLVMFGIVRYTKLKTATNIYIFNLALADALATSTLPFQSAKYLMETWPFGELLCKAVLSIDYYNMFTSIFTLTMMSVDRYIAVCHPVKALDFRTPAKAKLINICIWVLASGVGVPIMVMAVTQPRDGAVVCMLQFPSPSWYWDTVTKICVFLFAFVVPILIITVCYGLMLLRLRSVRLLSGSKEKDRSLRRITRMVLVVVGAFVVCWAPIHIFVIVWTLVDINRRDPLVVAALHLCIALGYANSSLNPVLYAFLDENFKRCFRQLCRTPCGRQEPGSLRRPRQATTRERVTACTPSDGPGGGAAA
Method notes: Antagonist potency against delta opioid receptor in mouse vas deferens (MVD) using DPDPE
Type: functional, tissue-based
Exercise: state measured IC50 ratio for each of the compounds provided.

Briefly, IC50 ratio measured for Oc1ccc2c3c1O[C@H]1c4nc(-c5ccccc5)ccc4C[C@@]4(O)[C@@H](C2)N(CC2CC2)CC[C@]314 : 41.1

Briefly, IC50 ratio measured for Cc1ncc2c(n1)[C@@H]1Oc3c(O)ccc4c3[C@@]13CCN(CC1CC1)[C@H](C4)[C@]3(O)C2 : 7.6

Briefly, IC50 ratio measured for Oc1ccc2c3c1O[C@H]1c4ncncc4C[C@@]4(O)[C@@H](C2)N(CC2CC2)CC[C@]314 : 14.4

Briefly, IC50 ratio measured for Oc1ccc2c3c1O[C@H]1c4nc(-c5ccccc5)cc(-c5ccccc5)c4C[C@@]4(O)[C@@H](C2)N(CC2CC2)CC[C@]314 : 21.2

---

Exercise: state measured Ke for each of the molecules provided.
Assay system: Mu-type opioid receptor (Cavia porcellus) (UniProt P97266)
Sequence (P97266 whole entry): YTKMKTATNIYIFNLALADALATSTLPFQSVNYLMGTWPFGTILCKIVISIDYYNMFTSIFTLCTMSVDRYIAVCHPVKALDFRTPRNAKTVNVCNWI
Method notes: Opioid antagonist potency against […] mu-opioid receptor from guinea pig ileum(GPI).
Type: functional, tissue-based
Give the number; nM is assumed, so skip it.

Briefly, Ke measured for Oc1ccc2c3c1O[C@H]1c4nc(-c5ccccc5)ncc4C[C@@]4(O)[C@@H](C2)N(CC2CC2)CC[C@]314 : 30

Briefly, Ke measured for Oc1ccc2c3c1O[C@H]1c4ncnc(-c5ccccc5)c4C[C@@]4(O)[C@@H](C2)N(CC2CC2)CC[C@]314 : 204

Briefly, Ke measured for Oc1ccc2c3c1O[C@H]1c4ncncc4C[C@@]4(O)[C@@H](C2)N(CC2CC2)CC[C@]314 : 150

Briefly, Ke measured for Oc1ccc2c3c1O[C@H]1c4nc(-c5ccccc5)ccc4C[C@@]4(O)[C@@H](C2)N(CC2CC2)CC[C@]314 : 88

Briefly, Ke measured for Oc1ccc2c3c1O[C@H]1c4[nH]c5ccccc5c4C[C@@]4(O)[C@@H](C2)N(CC2CC2)CC[C@]314 : 43

Briefly, Ke measured for Oc1ccc2c3c1OC1c4nccc(-c5ccccc5)c4C[C@@]4(O)[C@@H](C2)N(CC2CC2)CC[C@]314 (stereo partly drawn) : 190

Briefly, Ke measured for Oc1ccc2c3c1O[C@H]1c4nc(-c5ccccc5)nc(-c5ccccc5)c4C[C@@]4(O)[C@@H](C2)N(CC2CC2)CC[C@]314 : 560

Briefly, Ke measured for Oc1ccc2c3c1O[C@H]1c4nc(Cc5ccccc5)nc(-c5ccccc5)c4C[C@@]4(O)[C@@H](C2)N(CC2CC2)CC[C@]314 : 44

---

Record set of pKi for target or system Kappa-type opioid receptor (Cavia porcellus, UniProt P41144).
In textbook form, pKi equals minus log to base ten of the concentration in mol/L.

Briefly, pKi measured for Oc1ccc2c3c1O[C@H]1c4nc(-c5ccccc5)cc(-c5ccccc5)c4C[C@@]4(O)[C@@H](C2)N(CC2CC2)CC[C@]314 : 5.67

Briefly, pKi measured for Oc1ccc2c3c1O[C@H]1c4ncccc4C[C@@]4(O)[C@@H](C2)N(CC2CC2)CC[C@]314 : 8.06

Briefly, pKi measured for Oc1ccc2c3c1O[C@H]1c4nc(-c5ccccc5)nc(-c5ccccc5)c4C[C@@]4(O)[C@@H](C2)N(CC2CC2)CC[C@]314 : 5.60

Briefly, pKi measured for Cc1nc(-c2ccccc2)c2c(n1)C1Oc3c(O)ccc4c3[C@@]13CCN(CC1CC1)[C@H](C4)[C@]3(O)C2 (some centres not stated) : 6.25

Briefly, pKi measured for Oc1ccc2c3c1O[C@H]1c4ncc(-c5ccccc5)cc4C[C@@]4(O)[C@@H](C2)N(CC2CC2)CC[C@]314 : 7.75

Briefly, pKi measured for Cc1ncc2c(n1)[C@@H]1Oc3c(O)ccc4c3[C@@]13CCN(CC1CC1)[C@H](C4)[C@]3(O)C2 : 7.60

Briefly, pKi measured for Oc1ccc2c3c1O[C@H]1c4ncncc4C[C@@]4(O)[C@@H](C2)N(CC2CC2)CC[C@]314 : 8.20
